Recorded measurements of parental ratio, one per entry
- Subject of test: human CTLA-4 (human) (UniProt P16410)
- Sequence (P16410 36-223): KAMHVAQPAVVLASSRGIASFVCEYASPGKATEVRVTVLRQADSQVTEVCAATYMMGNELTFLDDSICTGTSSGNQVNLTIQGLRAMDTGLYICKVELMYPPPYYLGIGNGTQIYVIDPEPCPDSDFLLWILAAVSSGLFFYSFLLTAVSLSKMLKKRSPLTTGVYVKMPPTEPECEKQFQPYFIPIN
- Assay summary: flow cytometry, Expi293F cells transfected with CTLA-4

{"Binder": "CD80 V4M/L70Q/A91G/I118V/T120S/T130A/K169E ECD-Fc (Fc fusion) VIHMTKEVKEVATLSCGHNVSVEELAQTRIYWQKEKKMVLTMMSGDMNIWPEYKNRTIFDITNNLSIVIQALRPSDEGTYECVVLKYEKDGFKREHLAEVTLSVKADFPTPSISDFEVPSSNIRRIICSASGGFPEPHLSWLENGEELNAINTTVSQDPETELYAVSSELDFNMTTNHSFMCLIKYGHLRVNQTFNWNTTKQEHFPDN", "parental ratio": 1.26}

// moving on: another record for parental ratio
Record CD80 I67F/L70R/E88G/A91G/I118V/T120S/T130A ECD-Fc (Fc fusion) VIHVTKEVKEVATLSCGHNVSVEELAQTRIYWQKEKKMVLTMMSGDMNIWPEYKNRTIFDITNNLSFVIRALRPSDEGTYECVVLKYGKDGFKREHLAEVTLSVKADFPTPSISDFEVPSSNIRRIICSASGGFPEPHLSWLENGEELNAINTTVSQDPETELYAVSSKLDFNMTTNHSFMCLIKYGHLRVNQTFNWNTTKQEHFPDN , field parental ratio: 0.03
